Recorded MIC by entry
# System: C. difficile
# Assay: MIC by broth microdilution against C. difficile strains
# Format: cell-based, Clostridioides difficile
# Setup conditions: Clostridioides difficile, BAA1812, C. difficile BAA-1812; Table 7; read-out: MIC
Measurement type: MIC (µg/mL)

>>> observed_measurement("Cc1ncc([N+](=O)[O-])n1CCO [MTZ, metronidazole, reference compound]")
0.25
>>> observed_measurement("CCc1c(Cl)c(O)c(Cl)c(O)c1C(=O)O[C@H]1[C@H](O)[C@H](OC)[C@H](OC/C2=C\\C=C\\C[C@H](O)/C(C)=C/[C@H](CC)[C@@H](O[C@@H]3OC(C)(C)[C@@H](OC(=O)C(C)C)[C@H](O)[C@@H]3O)/C(C)=C/C(C)=C/C[C@@H]([C@@H](C)O)OC2=O)O[C@@H]1C [FDX, fidaxomicin, reference compound]")
0.015
>>> observed_measurement("O=C(Nc1ncco1)c1cc(Oc2cccc(OC(F)(F)F)c2)ccn1")
1
>>> observed_measurement("O=C(Nc1ncco1)c1ccnc(-c2ccc(Cl)c(Cl)c2)c1")
0.125
>>> observed_measurement("O=C(Nc1ncco1)c1cc(-c2ccc(Cl)c(Cl)c2)ccn1")
0.25

Attribution: patent US20230271950A1
